# METHOD SUMMARY: biodistribution in A431-CCK2R/A431-mock xenografted BALB/c nude mice
# Format: in vivo
# ASSAY CONDITIONS: female, athymic BALB/c nude, mouse, A431-CCK2R xenograft tumor, iv, 20 pmol, total radioactivity, 20 pmol, 12 h p.i.; read-out: tumor uptake in A431-CCK2R xenografts
# Protocol: Biodistribution studies evaluating the tumor uptake of the radiolabeled peptides were performed in 7- to 9-week-old female athymic BALB/c nude mice (Charles River, Sulzfeld, Germany). […] At 4 and 12 h p.i., the mice were sacrificed and the tumors and other tissues (blood, lung, heart, muscle, spleen, intestine, liver, kidneys, stomach, and pancreas) were removed, weighed, and their radioactivity measured in the γ counter together with the rest of the body. […]
Non-standard residues stand in square brackets, D forms with d. Residues, ends and D or L forms follow the SMILES beside them. *: point of attachment. DOTA = O=C(O)CN1CCN(CC(=O)O)CCN(CC(=O)*)CCN(CC(=O)O)CC1; 1Nal = N[C@@H](Cc1cccc2ccccc12)C(=O)O; NMeNle = CCCC[C@H](NC)C(=O)O
READOUT NAME: tissue uptake at 12 h (%ID/g)

COMPOUND | UNIT OF MEASUREMENT | NUMERIC VALUE
CCCC[C@@H](C(=O)N[C@@H](CC(=O)O)C(=O)N[C@@H](Cc1cccc2ccccc12)C(N)=O)N(C)C(=O)[C@H](Cc1c[nH]c2ccccc12)NC(=O)CNC(=O)[C@H](Cc1ccc(O)cc1)NC(=O)[C@@H]1CCCN1C(=O)[C@@H](CCC(=O)O)NC(=O)CN1CCN(CC(=O)O)CCN(CC(=O)O)CCN(CC(=O)O)CC1 [[^177Lu]Lu-1, metal not drawn] ({DOTA}-[dE]PYGW[NMeNle]D[1Nal]-NH2) | %ID/g | 23.4
CCCC[C@@H](C(=O)N[C@@H](CC(=O)O)C(=O)N[C@@H](Cc1cccc2ccccc12)C(N)=O)N(C)C(=O)[C@H](Cc1c[nH]c2ccccc12)NC(=O)CNC(=O)[C@@H]1CCCN1C(=O)[C@H](Cc1ccc(O)cc1)NC(=O)[C@@H](CCC(=O)O)NC(=O)CN1CCN(CC(=O)O)CCN(CC(=O)O)CCN(CC(=O)O)CC1 [[^177Lu]Lu-2, metal not drawn] ({DOTA}-[dE]YPGW[NMeNle]D[1Nal]-NH2) | %ID/g | 25

---

Listed molecules paired with reported tissue to tissue ratio at 4 h
# METHOD SUMMARY: biodistribution in A431-CCK2R/A431-mock xenografted BALB/c nude mice
# Assay type: in vivo
# ASSAY CONDITIONS: female, athymic BALB/c nude, mouse, A431-CCK2R xenograft tumor / liver, iv, 20 pmol, total radioactivity, 20 pmol, 4 h p.i.; read-out: tumor-to-liver ratio
Non-standard residues stand in square brackets, D forms with d. Residues, ends and D or L forms follow the SMILES beside them. *: point of attachment. DOTA = O=C(O)CN1CCN(CC(=O)O)CCN(CC(=O)*)CCN(CC(=O)O)CC1; 1Nal = N[C@@H](Cc1cccc2ccccc12)C(=O)O; NMeNle = CCCC[C@H](NC)C(=O)O

MOLECULE | tissue to tissue ratio at 4 h
CCCC[C@@H](C(=O)N[C@@H](CC(=O)O)C(=O)N[C@@H](Cc1cccc2ccccc12)C(N)=O)N(C)C(=O)[C@H](Cc1c[nH]c2ccccc12)NC(=O)[C@@H]1CCCN1C(=O)[C@H](Cc1ccc(O)cc1)NC(=O)[C@H](C)NC(=O)[C@@H](CCC(=O)O)NC(=O)CN1CCN(CC(=O)O)CCN(CC(=O)O)CCN(CC(=O)O)CC1 [[^177Lu]Lu-3, metal not drawn] ({DOTA}-[dE]AYPW[NMeNle]D[1Nal]-NH2) | 58
CCCC[C@@H](C(=O)N[C@@H](CC(=O)O)C(=O)N[C@@H](Cc1cccc2ccccc12)C(N)=O)N(C)C(=O)[C@H](Cc1c[nH]c2ccccc12)NC(=O)CNC(=O)[C@H](Cc1ccc(O)cc1)NC(=O)[C@@H]1CCCN1C(=O)[C@@H](CCC(=O)O)NC(=O)CN1CCN(CC(=O)O)CCN(CC(=O)O)CCN(CC(=O)O)CC1 [[^177Lu]Lu-1, metal not drawn] ({DOTA}-[dE]PYGW[NMeNle]D[1Nal]-NH2) | 83.3
CCCC[C@@H](C(=O)N[C@@H](CC(=O)O)C(=O)N[C@@H](Cc1cccc2ccccc12)C(N)=O)N(C)C(=O)[C@H](Cc1c[nH]c2ccccc12)NC(=O)CNC(=O)[C@@H]1CCCN1C(=O)[C@H](Cc1ccc(O)cc1)NC(=O)[C@@H](CCC(=O)O)NC(=O)CN1CCN(CC(=O)O)CCN(CC(=O)O)CCN(CC(=O)O)CC1 [[^177Lu]Lu-2, metal not drawn] ({DOTA}-[dE]YPGW[NMeNle]D[1Nal]-NH2) | 80.6

---

# METHOD SUMMARY: biodistribution in A431-CCK2R/A431-mock xenografted BALB/c nude mice
# Assay type: in vivo
# ASSAY CONDITIONS: female, athymic BALB/c nude, mouse, A431-CCK2R xenograft tumor / stomach, iv, 20 pmol, total radioactivity, 20 pmol, 4 h p.i.; read-out: tumor-to-stomach ratio
Non-standard residues stand in square brackets, D forms with d. Residues, ends and D or L forms follow the SMILES beside them. *: point of attachment. DOTA = O=C(O)CN1CCN(CC(=O)O)CCN(CC(=O)*)CCN(CC(=O)O)CC1; 1Nal = N[C@@H](Cc1cccc2ccccc12)C(=O)O; NMeNle = CCCC[C@H](NC)C(=O)O

COMPOUND | tissue to tissue ratio at 4 h
CCCC[C@@H](C(=O)N[C@@H](CC(=O)O)C(=O)N[C@@H](Cc1cccc2ccccc12)C(N)=O)N(C)C(=O)[C@H](Cc1c[nH]c2ccccc12)NC(=O)CNC(=O)[C@@H]1CCCN1C(=O)[C@H](Cc1ccc(O)cc1)NC(=O)[C@@H](CCC(=O)O)NC(=O)CN1CCN(CC(=O)O)CCN(CC(=O)O)CCN(CC(=O)O)CC1 [[^177Lu]Lu-2, metal not drawn] ({DOTA}-[dE]YPGW[NMeNle]D[1Nal]-NH2) | 7.31
CCCC[C@@H](C(=O)N[C@@H](CC(=O)O)C(=O)N[C@@H](Cc1cccc2ccccc12)C(N)=O)N(C)C(=O)[C@H](Cc1c[nH]c2ccccc12)NC(=O)CNC(=O)[C@H](Cc1ccc(O)cc1)NC(=O)[C@@H]1CCCN1C(=O)[C@@H](CCC(=O)O)NC(=O)CN1CCN(CC(=O)O)CCN(CC(=O)O)CCN(CC(=O)O)CC1 [[^177Lu]Lu-1, metal not drawn] ({DOTA}-[dE]PYGW[NMeNle]D[1Nal]-NH2) | 5
CCCC[C@@H](C(=O)N[C@@H](CC(=O)O)C(=O)N[C@@H](Cc1cccc2ccccc12)C(N)=O)N(C)C(=O)[C@H](Cc1c[nH]c2ccccc12)NC(=O)[C@@H]1CCCN1C(=O)[C@H](Cc1ccc(O)cc1)NC(=O)[C@H](C)NC(=O)[C@@H](CCC(=O)O)NC(=O)CN1CCN(CC(=O)O)CCN(CC(=O)O)CCN(CC(=O)O)CC1 [[^177Lu]Lu-3, metal not drawn] ({DOTA}-[dE]AYPW[NMeNle]D[1Nal]-NH2) | 6.49

---

Recorded measurements of tissue to tissue ratio at 4 h, one per entry
# METHOD SUMMARY: biodistribution in A431-CCK2R/A431-mock xenografted BALB/c nude mice
# Assay type: in vivo
# ASSAY CONDITIONS: female, athymic BALB/c nude, mouse, A431-CCK2R xenograft tumor / kidney, iv, 20 pmol, total radioactivity, 20 pmol, 4 h p.i.; read-out: tumor-to-kidney ratio
Non-standard residues stand in square brackets, D forms with d. Residues, ends and D or L forms follow the SMILES beside them. *: point of attachment. DOTA = O=C(O)CN1CCN(CC(=O)O)CCN(CC(=O)*)CCN(CC(=O)O)CC1; 1Nal = N[C@@H](Cc1cccc2ccccc12)C(=O)O; NMeNle = CCCC[C@H](NC)C(=O)O
READOUT NAME: tissue to tissue ratio at 4 h

COMPOUND | READOUT NAME | NUMERIC VALUE
CCCC[C@@H](C(=O)N[C@@H](CC(=O)O)C(=O)N[C@@H](Cc1cccc2ccccc12)C(N)=O)N(C)C(=O)[C@H](Cc1c[nH]c2ccccc12)NC(=O)CNC(=O)[C@H](Cc1ccc(O)cc1)NC(=O)[C@@H]1CCCN1C(=O)[C@@H](CCC(=O)O)NC(=O)CN1CCN(CC(=O)O)CCN(CC(=O)O)CCN(CC(=O)O)CC1 [[^177Lu]Lu-1, metal not drawn] ({DOTA}-[dE]PYGW[NMeNle]D[1Nal]-NH2) | tissue to tissue ratio at 4 h | 10
CCCC[C@@H](C(=O)N[C@@H](CC(=O)O)C(=O)N[C@@H](Cc1cccc2ccccc12)C(N)=O)N(C)C(=O)[C@H](Cc1c[nH]c2ccccc12)NC(=O)[C@@H]1CCCN1C(=O)[C@H](Cc1ccc(O)cc1)NC(=O)[C@H](C)NC(=O)[C@@H](CCC(=O)O)NC(=O)CN1CCN(CC(=O)O)CCN(CC(=O)O)CCN(CC(=O)O)CC1 [[^177Lu]Lu-3, metal not drawn] ({DOTA}-[dE]AYPW[NMeNle]D[1Nal]-NH2) | tissue to tissue ratio at 4 h | 4.52
CCCC[C@@H](C(=O)N[C@@H](CC(=O)O)C(=O)N[C@@H](Cc1cccc2ccccc12)C(N)=O)N(C)C(=O)[C@H](Cc1c[nH]c2ccccc12)NC(=O)CNC(=O)[C@@H]1CCCN1C(=O)[C@H](Cc1ccc(O)cc1)NC(=O)[C@@H](CCC(=O)O)NC(=O)CN1CCN(CC(=O)O)CCN(CC(=O)O)CCN(CC(=O)O)CC1 [[^177Lu]Lu-2, metal not drawn] ({DOTA}-[dE]YPGW[NMeNle]D[1Nal]-NH2) | tissue to tissue ratio at 4 h | 6.51
